For each entry below, report its log10(MIC) value.
System: Cryptococcus neoformans
Experiment: Antifungal activity against Cryptococcus neoformans H99 assessed as fungal growth inhibition incubated for 2 days by broth serial dilution method
Format: functional
Conditions: H99, 48 h, time 2 day
Remember, log10 of MIC, in µg/mL.

Example entries begin here.
CC(C)[C@@H]1NC(=O)[C@@H]2CCCN2C1=O 2.00
CC(C)C[C@@H]1NC(=O)[C@@H]2CCCN2C1=O 1.70

Working through the 8 compounds below one at a time, give log10(MIC) for each.
1. CC(C)C[C@@H]1NC(=O)[C@H](C(C)C)NC1=O
2. O=C1CNC(=O)[C@H](Cc2ccccc2)N1
3. O=c1[nH]c2ccccc2o1
4. CC(C)C[C@@H]1NC(=O)CNC1=O
5. OC(Cn1cncn1)(Cn1cncn1)c1ccc(F)cc1F
6. O=C(O)c1c[nH]c2ccccc12
7. C[C@@H]1NC(=O)[C@H](Cc2ccccc2)NC1=O
8. C/C=C/[C@H](O)[C@@H]1OC(=O)C[C@H]1Nc1ccc(C(=O)O)cc1

1. 1.70
2. 1.70
3. 1.40
4. 1.40
5. 0.60
6. 1.08
7. 2.00
8. 1.40

Working through the 8 compounds below one at a time, give log10(MIC) for each.
1. Cc1c(C(=O)O)c(O)cc2c1C(=O)c1c(O)cc(O)cc1C2=O
2. O=C1[C@H](Cc2ccccc2)NC(=O)[C@]2(O)CCCN12
3. O=C1N[C@@H](Cc2ccccc2)C(=O)N2C[C@H](O)C[C@@H]12
4. C[C@H](O)/C=C/[C@@H]1OC(=O)C[C@H]1Nc1ccc(C(=O)O)cc1
5. CC(C)C[C@@H]1NC(=O)[C@@H]2C[C@@H](O)CN2C1=O
6. C[C@]1(O)CC(=O)c2c(cc3cccc(O)c3c2O)C1
7. CC(=O)CC[C@@H]1OC(=O)C[C@H]1Nc1ccc(C(=O)O)cc1
8. CC(=O)NCCc1c[nH]c2ccccc12

1. 2.00
2. 1.70
3. 1.70
4. 2.00
5. 1.40
6. 1.70
7. 1.70
8. 2.30

Working through the 3 compounds below one at a time, give log10(MIC) for each.
1. Cc1c(C(=O)O)c(O)cc2c1C(=O)c1c(O)cccc1C2=O
2. Cc1cc(O)cc2cc3c(c(O)c12)C(=O)CC[C@@H]3O
3. CC(=O)Nc1ccccc1O

2.00
1.70
1.70
